systemUnderTest: NK-1 (Homo sapiens, UniProt P25103)
Construct: endogenous in cells; host or cells: U373 cells (crude membranes)
Sequence (P25103 whole entry): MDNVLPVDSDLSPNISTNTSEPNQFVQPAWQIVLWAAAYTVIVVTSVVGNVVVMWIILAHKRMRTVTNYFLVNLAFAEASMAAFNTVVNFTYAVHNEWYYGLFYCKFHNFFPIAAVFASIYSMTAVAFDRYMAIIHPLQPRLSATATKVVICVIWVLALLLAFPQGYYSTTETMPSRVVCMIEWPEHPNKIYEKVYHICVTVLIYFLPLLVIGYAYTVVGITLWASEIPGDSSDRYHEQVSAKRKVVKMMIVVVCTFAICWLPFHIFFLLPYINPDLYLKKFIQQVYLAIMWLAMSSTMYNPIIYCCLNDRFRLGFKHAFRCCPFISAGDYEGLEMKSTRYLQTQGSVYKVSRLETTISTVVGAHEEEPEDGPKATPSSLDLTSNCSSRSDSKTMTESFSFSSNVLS
measurementNotes: NK1 radioligand binding assay ([125I]Substance P, U373 cell membranes)
recordedConditions: 1 hour at room temperature
Procedure: NK-1 Binding assay. Crude membrane suspensions were prepared for the NK1 and SERT radioligand binding assays from U373 cells or recombinant HEK-293 cells expressing hSERT, respectively. Cells were harvested from T-175 flasks as follows. The medium is removed from the flasks and the cells rinsed with HBSS without Ca and without Mg. […] NK1 radioligand binding assay. […] The plates are air-dried overnight, 12 ul/well of MicroScint scintillation fluid added, and the plates counted in a Trilux. […]

{"columns": ["compound", "IC50"],
 "data": [
  ["NCCC1(COCc2cc(-c3ccc(F)cc3)cc(C(F)(F)F)c2)OCc2ccccc21 (stereo not shown)", "0.01 to 100 nM"],
  ["NCCC1(COCc2cc(C(F)(F)F)cc(C(F)(F)F)c2)OCc2ccccc21 (stereo not shown)", "0.01 to 100 nM"],
  ["CN(C)CCC1(COCc2cc(Br)cc(C(F)(F)F)c2)OCc2ccccc21 (stereo not shown)", "0.01 to 100 nM"],
  ["N#Cc1cccc(-c2cc(COCC3(CCN)OCc4ccccc43)cc(C(F)(F)F)c2)c1 (stereo not shown)", "100 to 300 nM"],
  ["NCCCC1(COCc2cc(C(F)(F)F)cc(C(F)(F)F)c2)OCc2ccccc21 (stereo not shown)", "0.01 to 100 nM"],
  ["N#Cc1ccc2c(c1)COC2(CCN)COCc1cc(C(F)(F)F)cc(C(F)(F)F)c1 (stereo not shown)", "0.01 to 100 nM"],
  ["NCCC1(COCc2cc(-c3cccc(Cl)c3)cc(C(F)(F)F)c2)OCc2ccccc21 (stereo not shown)", "100 to 300 nM"]
]}

====

A collection of compounds and their measured IC50
systemUnderTest: NK-1 (Homo sapiens)
Construct: endogenous in cells
measurementNotes: NK1 radioligand binding assay ([125I]Substance P, U373 cell membranes)
recordedConditions: 1 hour at room temperature
measurementName: IC50

{"columns": ["compound", "measurementName", "result"],
 "data": [
  ["CN(C)CCC1(COCc2cc(Cl)cc(Br)c2)OCc2ccccc21 (centres unmarked) [Example 31]", "IC50", "100 to 300 nM"],
  ["CC(OCC1(CCN(C)C)OCc2ccccc21)c1cc(Br)cc(C(F)(F)F)c1 (centres unmarked) [Example 27]", "IC50", "0.01 to 100 nM"],
  ["CN(C)CCC1(COCc2cc(C(F)(F)F)cc(C(F)(F)F)c2)OCCc2ccccc21 (centres unmarked) [Example 40]", "IC50", "0.01 to 100 nM"],
  ["N#Cc1ccc(-c2cc(Cl)cc(COCC3(CCN)OCc4ccccc43)c2)cc1 (centres unmarked) [Example 34]", "IC50", "0.01 to 100 nM"],
  ["CN(C)CCC1(COCc2cc(-c3ccncc3)cc(C(F)(F)F)c2)OCc2ccccc21 (centres unmarked) [Example 19]", "IC50", "0.01 to 100 nM"],
  ["COc1ccc(-c2cc(COCC3(CCN)OCc4ccccc43)cc(C(F)(F)F)c2)cc1F (centres unmarked) [Example 12]", "IC50", "0.01 to 100 nM"],
  ["N#Cc1ccccc1-c1cc(COCC2(CCN)OCc3ccccc32)cc(C(F)(F)F)c1 (centres unmarked) [Example 6]", "IC50", "100 to 300 nM"],
  ["NCCC1(COCc2cc(-c3cccc(F)c3)cc(C(F)(F)F)c2)OCc2ccccc21 (centres unmarked) [Example 10]", "IC50", "0.01 to 100 nM"]
]}
